# Assayed target: Dihydroorotate dehydrogenase (quinone), mitochondrial (Plasmodium falciparum (isolate 3D7))
# Measurement notes: PfDHODH enzyme inhibitors, primary screen, biochemical, C-terminal His tag, absorbance 600 nm (AID 1175);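 also: recombinant parasite enzyme with a five histidine tag at its C terminus; test concentration not given here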
# Measurement context: DCIP absorbance 600 nm, higher = more signal, called active from +8 up or from −8 down
Result type: composite z-score
Give bare numbers.

Please give composite z-score, item by item, for the list that follows.
1. COCCOC(=O)N1C(=O)[C@@]2(c3ccccc31)[C@H](c1ccc(O)cc1)N1[C@H](c3ccccc3)[C@H](c3ccccc3)OC(=O)[C@H]1[C@@H]2C(=O)NC[C@H](O)c1ccccc1
2. COCCCN1C(=O)[C@@]2(Cc3ccccc31)c1ccccc1C(=O)N(Cc1ccccc1C(F)(F)F)[C@H]2c1ccc(CO)cc1

[0.873, -20.2]

Please give composite z-score, item by item, for the list that follows.
1. COC(=O)[C@@]1(Cc2ccc(F)cc2)[C@H]2c3cc(C(=O)N(C)C)n(CC4CC4)c3C[C@H]2CN1C(=O)c1ccccc1
2. C=CCC(OC(C)=O)[C@@H]1[C@@H](N(Cc2cccc3ccccc23)C(=O)c2ccc(-c3ccccc3)cc2)c2cc(OCCCO)ccc2N1C(=O)Cc1ccc(OC)cc1 (stereo not given in full)
3. CN(C)C(=O)[C@]1(Cc2ccccc2N=[N+]=[N-])N=C(c2ccc(OCCCO)cc2)O[C@@H]1c1ccccc1

-0.0778
-0.606
0.209

Please give composite z-score, item by item, for the list that follows.
1. COCCn1c(C(=O)N2CCCC2)cc2c1C[C@H]1CN(C(=O)c3ccccc3)[C@@](Cc3ccc(F)cc3)(C(=O)OC)[C@@H]21
2. O=C1C[C@]2(c3ccc([N+](=O)[O-])cc3)C(=O)N(CCN3CCOCC3)c3cc(CO)ccc3[C@H]2N1C1CCCCC1
3. CN1C2C=C(CCCO)C(C3C(=O)N(C(N)=O)C(=O)C32)C1c1ccc(CN2CCCC2)cc1 (stereo not given)
4. CC(C)OC(=O)C=C1C[C@@H](c2ccccc2C(F)(F)F)O[C@@H](c2ccccc2C(F)(F)F)O1
5. COc1ccc(C(O)C2C=CC3C(=O)N(c4ccccc4)C(=O)C3N2Nc2ccc(C(C)C)cc2)cc1OCc1ccccc1 (stereo not given)
6. C=CCNC(=O)[C@H]1[C@@H]2C(=O)O[C@@H](c3ccccc3)[C@@H](c3ccccc3)N2[C@@H](c2ccc(OCCO)cc2)[C@]12C(=O)Nc1ccc(C#CC3=CCCCC3)cc12
7. COCCCNC(=O)C1N=C(c2ccc(OCCCO)cc2)N(c2ccccc2)O1 (stereo not given)

-0.343
-7.11
-0.157
-1.12
0.785
0.472
0.0216

###

# Measurement notes: MM1S myeloma cell viability, profiling panel, resazurin fluorescence, basal, 24 h, PK04 Diversity Set (AID 1174);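 also: MM1S multiple myeloma cell line; test concentration not given here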
# Measurement context: higher = more signal, called active from +8 up or from −8 down
Result type: z-score
Give bare numbers.

Answered cases to consult:
Compound	Experimental value
CN(C)C(=O)[C@]1(Cc2ccccc2CN=[N+]=[N-])N=C(c2ccc(OCCCO)cc2)O[C@@H]1c1ccccc1CN=[N+]=[N-]	-1.19
CO[C@H]1O[C@H](CO)[C@@H](OC(=O)Nc2ccc(Br)cc2)[C@H](OC(=O)c2cc3ccccc3[nH]2)[C@H]1OC(=O)c1cc2ccccc2[nH]1	-2.32
COc1cc2c(cc1OC)CN(C(=O)[C@@H]1[C@H]3C(=O)O[C@H](c4ccccc4)[C@H](c4ccccc4)N3[C@H](c3ccc(O)cc3)[C@@]13C(=O)Nc1ccc(C#CC4(O)CCCCCC4)cc13)CC2	0.323

Would you kindly look at the next entry?
Field request: z-score | item: O=C1C2C=CC(C(O)c3ccc(F)cc3)N(Nc3ccccc3F)C2C(=O)N1c1ccccc1 (centres undefined)
-0.63
